Tested on: A549
Test: Cytotoxicity against human A549 cells after 48 hrs by SRB assay
Assay type: functional, cell-based
Conditions: Homo sapiens, A549, 48 h; read-out: GI50
reported.metric: log10 of GI50 (log10 of the value in µM)
Heads up: the numbers are on a log10 scale; they represent GI50 in µM.

[[record]]
cpd_smiles = "C/C=C1\\NC(=O)[C@H](Cc2ccccc2)NC(=O)[C@@H](C(C)C)NC(=O)[C@@H]([C@H](C)CC)NC(=O)[C@H](NC(=O)[C@H](NC(=O)[C@H](CCCN)NC(=O)[C@H]2CCCCN2C(=O)[C@H](NC(=O)[C@@H](NC(=O)[C@@H](NC(=O)[C@H](NC(=O)CC[C@@H](C)CC)C(C)C)[C@@H](C)O)C(C)C)C(C)C)[C@H](C)CC)[C@H](C)OC(=O)[C@H](C(C)C)NC1=O"
number = 0.90

[[record]]
cpd_smiles = "C/C=C1\\NC(=O)[C@H](Cc2ccccc2)NC(=O)[C@@H](C(C)C)NC(=O)[C@@H]([C@H](C)CC)NC(=O)[C@H](NC(=O)[C@H](NC(=O)[C@H](CCCN)NC(=O)[C@H]2CCCN2C(=O)[C@H](NC(=O)[C@H](NC(=O)[C@@H](NC(=O)[C@H](NC(=O)CCCC(C)C)C(C)C)[C@@H](C)O)C(C)C)C(C)C)[C@H](C)CC)[C@H](C)OC(=O)[C@H](C(C)C)NC1=O"
number = 0.71

[[record]]
cpd_smiles = "C/C=C1\\NC(=O)[C@H](Cc2ccccc2)NC(=O)[C@@H](C(C)C)NC(=O)[C@@H]([C@H](C)CC)NC(=O)[C@H](NC(=O)[C@H](NC(=O)[C@H](CCCNC(=O)C(F)(F)F)NC(=O)[C@H]2CCCN2C(=O)[C@H](NC(=O)[C@@H](NC(=O)[C@@H](NC(=O)[C@H](NC(=O)CC[C@@H](C)CC)C(C)C)[C@@H](C)O)C(C)C)C(C)C)[C@H](C)CC)[C@H](C)OC(=O)[C@H](C(C)C)NC1=O"
number = 0.06

[[record]]
cpd_smiles = "C/C=C1\\NC(=O)[C@H](Cc2ccccc2)NC(=O)[C@@H](C(C)C)NC(=O)[C@@H]([C@H](C)CC)NC(=O)[C@H](NC(=O)[C@H](NC(=O)[C@H](CCCN)NC(=O)[C@H]2CCCN2C(=O)[C@H](NC(=O)[C@@H](NC(=O)[C@@H](NC(=O)[C@H](NC(=O)c2ccc3c(c2)OCO3)C(C)C)[C@@H](C)O)C(C)C)C(C)C)[C@H](C)CC)[C@H](C)OC(=O)[C@H](C(C)C)NC1=O"
number = -0.19

[[record]]
cpd_smiles = "C/C=C1\\NC(=O)[C@H](Cc2ccccc2)NC(=O)[C@@H](C(C)C)NC(=O)[C@@H]([C@H](C)CC)NC(=O)[C@H](NC(=O)[C@H](NC(=O)[C@H](CCCN)NC(=O)[C@H]2CCCN2C(=O)[C@H](NC(=O)[C@H](CCC2CCCCC2)NC(=O)[C@@H](NC(=O)[C@@H](CC2CCCCC2)NC(=O)CCCC(C)C)[C@@H](C)O)C(C)C)[C@H](C)CC)[C@H](C)OC(=O)[C@H](C(C)C)NC1=O"
number = 0.56

[[record]]
cpd_smiles = "C/C=C1\\NC(=O)[C@H](Cc2ccccc2)NC(=O)[C@@H](C(C)C)NC(=O)[C@@H]([C@@H](C)CC)NC(=O)[C@H](NC(=O)[C@H](NC(=O)[C@H](CCCN)NC(=O)[C@H]2CCCN2C(=O)[C@H](NC(=O)[C@@H](NC(=O)[C@@H](NC(=O)[C@H](NC(=O)CCCC(C)C)[C@@H](C)O)[C@@H](C)O)C(C)C)C(C)C)[C@@H](C)CC)[C@@H](C)OC(=O)[C@H](C(C)C)NC1=O"
number = 0.19


Query :: Give the reported value of log10 of GI50 for this record: "C/C=C1\NC(=O)[C@H](Cc2ccccc2)NC(=O)[C@@H](C(C)C)NC(=O)[C@@H]([C@H](C)CC)NC(=O)[C@H](NC(=O)[C@H](NC(=O)[C@H](CCCN)NC(=O)[C@H]2CCCN2C(=O)[C@H](NC(=O)[C@@H](NC(=O)[C@@H](NC(=O)[C@H](NC(=O)c2ccccc2)C(C)C)[C@@H](C)O)C(C)C)C(C)C)[C@H](C)CC)[C@H](C)OC(=O)[C@H](C(C)C)NC1=O"
Result :: 0.12

Query :: Give the reported value of log10 of GI50 for this record: "C/C=C1\NC(=O)[C@H](Cc2cccs2)NC(=O)[C@@H](C(C)C)NC(=O)[C@@H]([C@H](C)CC)NC(=O)[C@H](NC(=O)[C@H](NC(=O)[C@H](CCCN)NC(=O)[C@H]2CCCN2C(=O)[C@H](NC(=O)[C@@H](NC(=O)[C@@H](NC(=O)[C@H](NC(=O)CC[C@@H](C)CC)C(C)C)[C@@H](C)O)C(C)C)C(C)C)[C@H](C)CC)[C@H](C)OC(=O)[C@H](C(C)C)NC1=O"
Result :: 0.25

Query :: Give the reported value of log10 of GI50 for this record: "C/C=C1\NC(=O)[C@H](Cc2ccccc2)NC(=O)[C@@H](C(C)C)NC(=O)[C@@H]([C@H](C)CC)NC(=O)[C@H](NC(=O)[C@H](NC(=O)[C@H](CCCN)NC(=O)[C@H]2CCCN2C(=O)[C@H](NC(=O)[C@@H](NC(=O)[C@@H](NC(=O)[C@H](NC(=O)C(F)(F)C(F)(F)C(F)(F)C(F)(F)C(F)(F)C(F)(F)F)C(C)C)[C@@H](C)O)C(C)C)C(C)C)[C@H](C)CC)[C@H](C)OC(=O)[C@H](C(C)C)NC1=O"
Result :: -0.20

Query :: Give the reported value of log10 of GI50 for this record: "C/C=C1\NC(=O)[C@H](Cc2ccccc2)NC(=O)[C@@H](C(C)C)NC(=O)[C@@H]([C@H](C)CC)NC(=O)[C@H](NC(=O)[C@H](NC(=O)[C@H](CCCN)NC(=O)[C@H]2CCCN2C(=O)[C@H](NC(=O)[C@@H](NC(=O)[C@@H]2CCCN2C(=O)[C@H](NC(=O)CCCC(C)C)C(C)C)C(C)C)C(C)C)[C@H](C)CC)[C@H](C)OC(=O)[C@H](C(C)C)NC1=O"
Result :: 0.21

====

Tested on: DU-145
Assay: Cytotoxicity against human DU145 cells after 48 hrs by SRB assay
Type: functional, cell-based
Conditions: Homo sapiens, DU-145, 48 h
reported.metric: TGI (nM)
Give the value, in units of nM, as a plain number.

Reference set (4 entries):
[[record]]
cpd_smiles = "C/C=C1\\NC(=O)[C@H](Cc2ccccc2)NC(=O)[C@@H](C(C)C)NC(=O)[C@@H]([C@H](C)CC)NC(=O)[C@H](NC(=O)[C@H](NC(=O)[C@H](CCCN)NC(=O)[C@H]2CCCN2C(=O)[C@H](NC(=O)[C@@H](NC(=O)[C@@H](NC(=O)[C@@H](Cc2ccccc2)NC(=O)CCCC(C)C)[C@@H](C)O)C(C)C)C(C)C)[C@H](C)CC)[C@H](C)OC(=O)[C@H](C(C)C)NC1=O"
number = 3680

[[record]]
cpd_smiles = "C/C=C1\\NC(=O)[C@H](Cc2ccccc2)NC(=O)[C@@H](C(C)C)NC(=O)[C@@H]([C@H](C)CC)NC(=O)[C@H](NC(=O)[C@H](NC(=O)[C@H](CCCNC(=O)CCOCCOCCNC(=O)OCC2c3ccccc3-c3ccccc32)NC(=O)[C@H]2CCCN2C(=O)[C@H](NC(=O)[C@@H](NC(=O)[C@@H](NC(=O)[C@H](NC(=O)CCCC(C)C)C(C)C)[C@@H](C)O)C(C)C)C(C)C)[C@H](C)CC)[C@H](C)OC(=O)[C@H](C(C)C)NC1=O"
number = 15.7

[[record]]
cpd_smiles = "C/C=C1\\NC(=O)[C@H](Cc2ccccc2)NC(=O)[C@@H](C(C)C)NC(=O)[C@@H]([C@H](C)CC)NC(=O)[C@H](NC(=O)[C@H](NC(=O)[C@H](CCCN)NC(=O)[C@H]2Cc3ccccc3CN2C(=O)[C@H](NC(=O)[C@@H](NC(=O)[C@@H](NC(=O)[C@H](NC(=O)CC[C@@H](C)CC)C(C)C)[C@@H](C)O)C(C)C)C(C)C)[C@H](C)CC)[C@H](C)OC(=O)[C@H](C(C)C)NC1=O"
number = 2280

[[record]]
cpd_smiles = "C/C=C1\\NC(=O)[C@H](Cc2ccccc2)NC(=O)[C@@H](C(C)C)NC(=O)[C@@H]([C@H](C)CC)NC(=O)[C@H](NC(=O)[C@H](NC(=O)[C@H](CCCN)NC(=O)[C@H]2CCCN2C(=O)[C@H](NC(=O)[C@H](NC(=O)[C@@H](NC(=O)[C@H](NC(=O)CCCC(C)C)C(C)C)[C@@H](C)O)C(C)C)C(C)C)[C@H](C)CC)[C@H](C)OC(=O)[C@H](C(C)C)NC1=O"
number = 3800


Query :: Give the reported value of TGI for this record: "C/C=C1\NC(=O)[C@H](Cc2c(F)c(F)c(F)c(F)c2F)NC(=O)[C@@H](C(C)C)NC(=O)[C@@H]([C@H](C)CC)NC(=O)[C@H](NC(=O)[C@H](NC(=O)[C@H](CCCN)NC(=O)[C@H]2CCCN2C(=O)[C@H](NC(=O)[C@@H](NC(=O)[C@@H](NC(=O)[C@H](NC(=O)CC[C@@H](C)CC)C(C)C)[C@@H](C)O)C(C)C)C(C)C)[C@H](C)CC)[C@H](C)OC(=O)[C@H](C(C)C)NC1=O"
Result :: 1170
